Tested on: MS2 coat protein
measurement.description: apparent KD of MS2 coat protein; designed switch direction (-1 OFF switch, 1 ON switch): 1; higher = weaker reporter binding
assay.conditions: input ligand: FMN 200 uM
test.readout: apparent KD of MS2 coat protein (µM)
Reply with just the number (in µM).

residues="AUUGGGUAACGAGGAUAUCGUUUUUGUUUUCUUCGAGAAGGCGUUAUUGUUUAUUUCUAUUGUUACAUGAGGAUCACCCAUGUU [JR_SSNG1_Sub055] (Eterna round: R96, puzzle: Same State NG 1)" quantity_unit=µM endpoint_result=0.015
residues="AAUUAAGAUCAAGGAUAUCACGUCGAAUAGACGUGAGAAGGUGAUAAUUACAUGAGGAUCACCCAUGUAUAACAUGAAUUAAUU [SSNG1/9-B1] (Eterna round: R96, puzzle: Same State NG 1)" quantity_unit=µM endpoint_result=0.03

As a next step, examine the sequence that follows.
# lookup: apparent KD of MS2 coat protein of GAGAGAGGGCGAGGAUAUUCGGUGAUAAUGAUGGAAGAAGGCGCUGACAUGAGGAUCACCCAUGUGGGAAUAAUCCAGAGAGAG [Parity 15 - Jieux - Same State NG 1] (Eterna round: R96, puzzle: Same State NG 1)
0.494
